Target: human A2A receptors expressed in CHO cells (Homo sapiens, UniProt P29274)
Sequence (P29274 whole entry): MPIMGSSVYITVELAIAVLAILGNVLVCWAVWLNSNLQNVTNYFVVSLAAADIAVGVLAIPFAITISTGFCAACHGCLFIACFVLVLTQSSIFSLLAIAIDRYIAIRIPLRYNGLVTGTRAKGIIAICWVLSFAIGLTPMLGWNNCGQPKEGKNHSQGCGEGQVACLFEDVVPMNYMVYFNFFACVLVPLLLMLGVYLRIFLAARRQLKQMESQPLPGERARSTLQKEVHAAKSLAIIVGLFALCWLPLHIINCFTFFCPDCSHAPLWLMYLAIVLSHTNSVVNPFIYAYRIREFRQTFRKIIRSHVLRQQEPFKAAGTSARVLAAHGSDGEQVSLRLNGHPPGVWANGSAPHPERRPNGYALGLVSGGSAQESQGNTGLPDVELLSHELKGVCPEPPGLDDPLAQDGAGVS
Experiment: competition binding at human A2A adenosine receptors ([3H]NECA displacement)
Settings: selectivity ratio of Ki values
experimental readout: hA1/hA2A

# input // hA1/hA2A lookup, key: "Cc1cc(C)nc(N2CCN(C(=O)c3cc4cccc([N+](=O)[O-])c4[nH]3)CC2)n1"
# output 0.16

# input // hA1/hA2A lookup, key: "Cc1cc(C)nc(N2CCN(C(=O)Cc3c(C)[nH]c4ccccc34)CC2)n1"
# output >11

# input // hA1/hA2A lookup, key: "COc1ccc2[nH]cc(C(=O)N3CCN(c4nc(C)cc(C)n4)CC3)c2c1"
# output >8

# input // hA1/hA2A lookup, key: "Cc1cc(C)nc(N2CCN(C(=O)Cc3c(C)[nH]c4ccc(F)cc34)CC2)n1"
# output >6

###

Target: human A2A receptors expressed in CHO cells (Homo sapiens, UniProt P29274)
hey, just use 1 if measured Ki is less than 20 µM, otherwise -1

# input State whether 20 µM exceeds Ki recorded for "Cc1cc(C)nc(N2CCN(C(=O)c3cc4cc(F)ccc4[nH]3)CC2)n1" .
# output -1

# input State whether 20 µM exceeds Ki recorded for "Cc1cc(C)nc(N2CCN(CCCCc3c[nH]c4ccccc34)CC2)n1" .
# output -1

# input State whether 20 µM exceeds Ki recorded for "COc1cccc2c(C(=O)N3CCN(c4nc(C)cc(C)n4)CC3)c[nH]c12" .
# output 1

# input State whether 20 µM exceeds Ki recorded for "Cc1cc(C)nc(N2CCN(C(=O)CCc3c[nH]c4ccccc34)CC2)n1" .
# output -1

# input State whether 20 µM exceeds Ki recorded for "Cc1cc(C)nc(N2CCN(CCc3c(C)[nH]c4ccccc34)CC2)n1" .
# output -1

# input State whether 20 µM exceeds Ki recorded for "Cc1cc(C)nc(N2CCN(C(=O)Cc3c[nH]c4ccccc34)CC2)n1" .
# output -1

# input State whether 20 µM exceeds Ki recorded for "Cc1cc(C)nc(N2CCN(C(=O)Cc3c(C)[nH]c4ccccc34)CC2)n1" .
# output 1

# input State whether 20 µM exceeds Ki recorded for "Cc1cc(C)nc(N2CCN(C(=O)c3cc4cccc([N+](=O)[O-])c4[nH]3)CC2)n1" .
# output -1

# input State whether 20 µM exceeds Ki recorded for "Cc1cc(C)nc(N2CCN(C(=O)c3cc4ccccc4[nH]3)CC2)n1" .
# output -1

# input State whether 20 µM exceeds Ki recorded for "COc1cccc2[nH]cc(C(=O)N3CCN(c4nc(C)cc(C)n4)CC3)c12" .
# output 1

# input State whether 20 µM exceeds Ki recorded for "Cc1cc(C)nc(N2CCN(CCCc3c[nH]c4ccccc34)CC2)n1" .
# output -1

###

Experiment: aqueous solubility
Assay type: physicochemical
Conditions: universal aqueous buffer, 22.5 °C, pH 7.4, aqueous buffer, kinetic from dmso stock, pH 7.4, 3 h, room temperature; read-out: Solubility (μM), 3 h
experimental readout: solubility at 3 h

# input // solubility at 3 h lookup, key: "Cc1cc(C)nc(N2CCN(C(=O)c3c[nH]c4ccccc34)CC2)n1"
# output 27 µM

###

Target: human A2A receptors expressed in CHO cells (Homo sapiens, UniProt P29274)
Test: competition binding at human A2A adenosine receptors ([3H]NECA displacement)
Settings: selectivity ratio of Ki values
Kindly supply the reported hA3/hA2A values for the records listed here.

# input // hA3/hA2A lookup, key: "Cc1cc(C)nc(N2CCN(C(=O)c3c[nH]c4ccccc34)CC2)n1"
# output >9

# input // hA3/hA2A lookup, key: "Cc1cc(C)nc(N2CCN(C(=O)c3c[nH]c4ccc(Cl)cc34)CC2)n1"
# output 1.26

# input // hA3/hA2A lookup, key: "Cc1cc(C)nc(N2CCN(C(=O)c3cc4cccc([N+](=O)[O-])c4[nH]3)CC2)n1"
# output >1

# input // hA3/hA2A lookup, key: "COc1cccc2c(C(=O)N3CCN(c4nc(C)cc(C)n4)CC3)c[nH]c12"
# output >8

# input // hA3/hA2A lookup, key: "Cc1cc(C)nc(N2CCN(C(=O)Cc3c(C)[nH]c4ccc(F)cc34)CC2)n1"
# output >2

# input // hA3/hA2A lookup, key: "Cc1cc(C)nc(N2CCN(CCc3c(C)[nH]c4ccccc34)CC2)n1"
# output 1.16

# input // hA3/hA2A lookup, key: "Cc1cc(C)nc(N2CCN(C(=O)Cc3c[nH]c4cc(F)ccc34)CC2)n1"
# output >1

# input // hA3/hA2A lookup, key: "COc1ccc2[nH]cc(C(=O)N3CCN(c4nc(C)cc(C)n4)CC3)c2c1"
# output >2

# input // hA3/hA2A lookup, key: "Cc1cc(C)nc(N2CCN(C(=O)Cc3c(C)[nH]c4ccccc34)CC2)n1"
# output >11

# input // hA3/hA2A lookup, key: "Cc1cc(C)nc(N2CCN(C(=O)Cc3c[nH]c4ccccc34)CC2)n1"
# output >1

# input // hA3/hA2A lookup, key: "COc1cccc2[nH]cc(C(=O)N3CCN(c4nc(C)cc(C)n4)CC3)c12"
# output >2
